# assayedSystem: Casein kinase I isoform gamma-2 (Homo sapiens) (UniProt P78368);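 note: values are mean inhibition figures reported as part of the GSK PKIS dataset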
# Sequence (P78368 whole entry, looked up, canonical isoform): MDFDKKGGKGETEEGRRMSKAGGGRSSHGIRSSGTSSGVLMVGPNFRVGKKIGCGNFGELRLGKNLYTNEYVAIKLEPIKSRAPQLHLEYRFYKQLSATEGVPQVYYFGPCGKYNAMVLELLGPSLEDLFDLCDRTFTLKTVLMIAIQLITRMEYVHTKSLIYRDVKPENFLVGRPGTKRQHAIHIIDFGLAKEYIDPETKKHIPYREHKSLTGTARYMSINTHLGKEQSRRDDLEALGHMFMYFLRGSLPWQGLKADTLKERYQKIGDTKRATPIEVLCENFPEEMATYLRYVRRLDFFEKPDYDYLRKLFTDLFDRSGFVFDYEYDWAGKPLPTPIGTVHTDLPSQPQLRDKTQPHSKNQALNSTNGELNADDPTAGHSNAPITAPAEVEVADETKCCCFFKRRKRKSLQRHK
# details: at 0.1 µM
Quick list: inhibition per entry.
The reply should be a number in %, with the unit left off.

Recorded inhibition, per entry:
Problem: What measured inhibition goes with CCNC(=O)O[C@H]1CN[C@H](C#Cc2cc3ncnc(Nc4ccc(OCc5cccc(F)c5)c(Cl)c4)c3s2)C1 ?
Solution: 1.8

Problem: What measured inhibition goes with COc1ccc(-c2oc3ncnc(N)c3c2-c2ccc(NC(=O)Nc3cc(C(F)(F)F)ccc3F)cc2)cc1 ?
Solution: 2.18

New cases:
Problem: What measured inhibition goes with COc1cc(N2CCN(C(C)C)CC2)ccc1Nc1nc(Nc2ccc(F)cc2C(N)=O)c2cc[nH]c2n1 ?
Solution: 7.97

Problem: What measured inhibition goes with CC(=O)NCc1cccc(C#Cc2cncnc2Nc2ccc(OCc3cccc(F)c3)c(Cl)c2)c1 ?
Solution: -0.69

====

# assayedSystem: Tyrosine-protein kinase FRK (Homo sapiens);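 note: reported percent inhibition is a mean value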
# details: at 1 µM
Quick list: inhibition per entry.
The reply should be a number in %, with the unit left off.

Recorded inhibition, per entry:
Problem: What measured inhibition goes with Nc1nc(-c2ccc(F)cc2)c(-c2ccc3ncccc3n2)s1 ?
Solution: 2.66

Problem: What measured inhibition goes with CC(=O)Nc1cccc(C#Cc2cncnc2Nc2ccc(OCc3cccc(F)c3)c(Cl)c2)c1 ?
Solution: 2.51

Now consider a different molecule.
Problem: What measured inhibition goes with Clc1ccc(-c2nn3ncccc3c2-c2ccnc(Nc3ccccc3)n2)cc1 ?
Solution: 3.48

====

Quick list: inhibition per entry.
# assayedSystem: Serine/threonine-protein kinase Nek9 (Homo sapiens);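 note: each value is a mean percent inhibition of NEK9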
# details: at 1 µM

Recorded inhibition, per entry:
Problem: What value of inhibition on Serine/threonine-protein kinase Nek9 (Homo sapiens) does N#Cc1c(NC(=O)CN2CCOCC2)sc2c1CCCC2 have?
Solution: 1.68%

Problem: What value of inhibition on Serine/threonine-protein kinase Nek9 (Homo sapiens) does CCNC(=O)O[C@H]1CN[C@H](C#Cc2cc3ncnc(Nc4ccc(OCc5cccc(F)c5)c(Cl)c4)c3s2)C1 have?
Solution: 4.6%

Problem: What value of inhibition on Serine/threonine-protein kinase Nek9 (Homo sapiens) does O=C(O[C@H]1CN[C@H](C#Cc2cc3ncnc(Nc4ccc(Cc5ccccc5)cc4)c3s2)C1)N1CCOCC1 have?
Solution: 7.49%

Problem: What value of inhibition on Serine/threonine-protein kinase Nek9 (Homo sapiens) does CCN(CC)S(=O)(=O)c1ccc(OC)c(Nc2ncc(-c3ccccc3)o2)c1 have?
Solution: 1.83%

Problem: What value of inhibition on Serine/threonine-protein kinase Nek9 (Homo sapiens) does CS(=O)(=O)CCNCc1ccc(-c2ccc3ncnc(Nc4ccc(OCc5ccccc5)c(C(F)(F)F)c4)c3c2)o1 have?
Solution: 7.1%

Problem: What value of inhibition on Serine/threonine-protein kinase Nek9 (Homo sapiens) does CC(C)COC(=O)c1ccc2c(c1)/C(=C/Nc1ccc(S(N)(=O)=O)cc1)C(=O)N2 have?
Solution: 0.18%

Problem: What value of inhibition on Serine/threonine-protein kinase Nek9 (Homo sapiens) does COc1ccc(CNC(=O)c2ccc(-c3cc(-c4nnc(C)o4)ccc3C)cc2)cc1 have?
Solution: 6.3%

Problem: What value of inhibition on Serine/threonine-protein kinase Nek9 (Homo sapiens) does COc1cc2ncn(-c3cc(OCc4ccccc4C(F)(F)F)c(C(=O)N(C)C)s3)c2cc1OC have?
Solution: 3.25%

Problem: What value of inhibition on Serine/threonine-protein kinase Nek9 (Homo sapiens) does CCn1c(-c2nonc2N)nc2c(C#CC(C)(C)O)ncc(OC3CCNCC3)c21 have?
Solution: 5.22%

Problem: What value of inhibition on Serine/threonine-protein kinase Nek9 (Homo sapiens) does COc1ccc(-c2nn3ncccc3c2-c2ccnc(Nc3ccc4c(c3)OCCO4)n2)cc1 have?
Solution: 8.39%

New cases:
Problem: What value of inhibition on Serine/threonine-protein kinase Nek9 (Homo sapiens) does COc1ccc(-c2cc3c(N)ncnc3o2)cc1 have?
Solution: 2.28%

Problem: What value of inhibition on Serine/threonine-protein kinase Nek9 (Homo sapiens) does FC(F)(F)c1cccc(-c2nn3ncccc3c2-c2ccnc(Nc3ccc4c(c3)OCCO4)n2)c1 have?
Solution: 1.67%

Problem: What value of inhibition on Serine/threonine-protein kinase Nek9 (Homo sapiens) does CS(=O)(=O)CCNCc1coc(-c2ccc3ncnc(Nc4ccc(OCc5ccccc5)cc4)c3c2)c1 have?
Solution: 15.4%

Problem: What value of inhibition on Serine/threonine-protein kinase Nek9 (Homo sapiens) does CNC(=O)c1cncc(/C=C/c2ccccc2Cl)c1 have?
Solution: 3.22%

Problem: What value of inhibition on Serine/threonine-protein kinase Nek9 (Homo sapiens) does CCn1cc(-c2ccnc3[nH]ccc23)c(-c2cccc(NC(=O)Nc3ccc(OCc4ccccc4)cc3)c2)n1 have?
Solution: 1.16%

Where do these numbers come from? They come from ChEMBL document CHEMBL1961873.
